# Tested System: Progesterone receptor (Oryctolagus cuniculus) (UniProt P06186)
# Sequence (P06186 whole entry): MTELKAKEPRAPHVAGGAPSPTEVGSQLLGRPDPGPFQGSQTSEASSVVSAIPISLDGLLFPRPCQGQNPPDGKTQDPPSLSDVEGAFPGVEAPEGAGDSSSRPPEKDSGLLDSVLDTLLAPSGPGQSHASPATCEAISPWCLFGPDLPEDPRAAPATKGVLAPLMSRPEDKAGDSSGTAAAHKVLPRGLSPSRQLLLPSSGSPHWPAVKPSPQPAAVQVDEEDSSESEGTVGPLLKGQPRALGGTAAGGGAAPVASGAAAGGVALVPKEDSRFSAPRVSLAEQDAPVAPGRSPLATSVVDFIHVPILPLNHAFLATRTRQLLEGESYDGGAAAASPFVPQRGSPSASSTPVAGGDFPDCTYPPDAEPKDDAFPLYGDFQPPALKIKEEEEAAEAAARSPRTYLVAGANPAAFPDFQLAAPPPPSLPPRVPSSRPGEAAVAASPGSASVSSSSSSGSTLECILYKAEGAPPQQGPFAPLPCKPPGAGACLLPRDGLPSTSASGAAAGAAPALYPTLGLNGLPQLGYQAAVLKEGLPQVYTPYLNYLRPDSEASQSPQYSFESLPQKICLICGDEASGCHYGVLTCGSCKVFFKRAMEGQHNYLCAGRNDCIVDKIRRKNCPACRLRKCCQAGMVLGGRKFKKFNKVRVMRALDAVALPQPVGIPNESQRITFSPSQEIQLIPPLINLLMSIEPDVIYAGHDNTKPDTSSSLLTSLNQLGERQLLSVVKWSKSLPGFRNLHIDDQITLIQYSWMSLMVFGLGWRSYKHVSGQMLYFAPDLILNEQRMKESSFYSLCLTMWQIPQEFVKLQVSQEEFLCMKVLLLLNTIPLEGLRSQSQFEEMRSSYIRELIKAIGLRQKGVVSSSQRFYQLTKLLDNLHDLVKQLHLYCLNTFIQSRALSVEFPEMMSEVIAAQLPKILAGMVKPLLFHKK
# Assay Info: Relative binding affinity to rabbit progesterone receptor
Parameter: log(RBA). Scope: all listed entries.
Form rule: numeric answer, no unit written next to it.

As a guide, the following entries are already answered.
{"Smiles Notation": "CC(=O)[C@H]1CC[C@H]2[C@@H]3CC=C4C[C@@H](O)CC[C@]4(C)[C@H]3CC[C@]12C", "Tested System": "Progesterone receptor (Oryctolagus cuniculus) (UniProt P06186)", "log(RBA)": -0.301}
{"Smiles Notation": "CC(=O)[C@H]1CC[C@H]2[C@@H]3CCC4=CC(=O)CC[C@]4(C)[C@H]3CC[C@]12C", "Tested System": "Progesterone receptor (Oryctolagus cuniculus) (UniProt P06186)", "log(RBA)": 2}
{"Smiles Notation": "C#C[C@]1(O)CC[C@H]2[C@@H]3CCC4=CC(=O)CCC4=C3C=C[C@@]21C", "Tested System": "Progesterone receptor (Oryctolagus cuniculus) (UniProt P06186)", "log(RBA)": 1.3}

Fill blank: measured log(RBA) of the compound CC(=O)[C@H]1CC[C@H]2[C@@H]3CCC4=CC(=O)CC[C@]4(C)[C@H]3CC(=O)[C@]12C is ____.
-0.221

// same read-out, input: C#C[C@]1(OC(C)=O)CC[C@H]2[C@@H]3CCC4=CCCC[C@@H]4[C@H]3CC[C@@]21C
0

Also, C[C@]12C[C@H](O)[C@H]3[C@@H](CCC4=CC(=O)CC[C@@]43C)[C@@H]1CC[C@@H]2C(=O)CO please.
0.02

Next up: C#C[C@]1(O)CC[C@H]2[C@@H]3CCC4=CCCC[C@@H]4[C@H]3CC[C@@]21C
1.11

Can you check CC(=O)[C@@]12[C@@H](C[C@H]3[C@@H]4CCC5=CC(=O)CC[C@]5(C)[C@H]4CC[C@@]31C)C2(C)C next?
2.38

###

Below, each entry is listed with its recorded log(RBA).
# Species on record: Cavia porcellus
# Assay Info: Relative binding affinity to guinea pig progesterone receptor
Just the number.

{"Smiles Notation": "CC[C@@H]1C[C@H]2[C@@H]3CCC4=CC(=O)CC[C@@H]4[C@H]3CC[C@]2(C)[C@H]1C(=O)CF", "log(RBA)": 1.6}
{"Smiles Notation": "CC(=O)O[C@]1(C(C)=O)CC[C@H]2[C@@H]3C=C(C)C4=CC(=O)CC[C@]4(C)[C@H]3CC[C@@]21C", "log(RBA)": -0.3}
{"Smiles Notation": "CC(=O)[C@H]1CC[C@H]2[C@@H]3CCC4=CC(=O)CC[C@]4(CO)[C@H]3CC[C@]12C", "log(RBA)": -0.22}
{"Smiles Notation": "C[C@]12CC[C@H]3[C@@H](CCC4=CC(=O)CC[C@@H]43)[C@@H]1CC[C@@H]2O", "log(RBA)": 1.6}
{"Smiles Notation": "CC(=O)[C@H]1CC[C@H]2[C@@H]3CC[C@H]4CC(=O)CC[C@]4(C)[C@H]3CC[C@]12C", "log(RBA)": 1.4}

What measured log(RBA) goes with CC(=O)[C@H]1CC[C@H]2[C@@H]3CC[C@@H]4CC(=O)CC[C@]4(C)[C@H]3CC[C@]12C ?
0.7

###

# Tested System: Progesterone receptor (Homo sapiens)
log(RBA) strictly under 2 means Yes; at 2 or over means No.

API: query returns whether the compound falls strictly under 2 in log(RBA). Query: CC[C@]12CC[C@H]3[C@@H](CCC4=CC(=O)CC[C@@]43C)[C@@H]1CC[C@@H]2C(C)=O
Yes

What do we get for C#C[C@]1(O)CC[C@H]2[C@@H]3CCC4=CC(=O)CC[C@@H]4[C@H]3[C@@H](Cl)C[C@@]21C ?
No

Next entry: CC[C@@H]1C[C@H]2[C@@H]3CCC4=CC(=O)CC[C@@H]4[C@H]3CC[C@]2(C)[C@H]1C(=O)CF
No

Now the same for C[C@]12CCC(=O)C[C@@H]1CC[C@@H]1[C@@H]2CC[C@]2(C)[C@@H](O)CC[C@@H]12
Yes

Note, next up: CC(=O)[C@H]1CC[C@H]2[C@@H]3CCC4=CC(=O)C=C[C@]4(C)[C@H]3CC[C@]12C
Yes

###

# Tested System: Progesterone receptor (Oryctolagus cuniculus) (UniProt P06186)
# Assay Info: Relative binding affinity to rabbit progesterone receptor
Everything with log(RBA) lower than 1 is n; everything else, including exactly 1, is y.

Some solved cases for reference:
{"Smiles Notation": "C#C[C@]1(O)CC[C@H]2[C@@H]3CCC4=C(CCC(=O)C4)[C@H]3CC[C@@]21C", "Class Name": "y"}
{"Smiles Notation": "C[C@]12CC[C@H]3[C@@H](CCC4=CC(=O)CC[C@@]43C)[C@@H]1CC[C@@H]2C(=O)CO", "Class Name": "y"}
{"Smiles Notation": "CC(=O)OCC(=O)[C@H]1CC[C@H]2[C@@H]3CCC4=CC(=O)CC[C@]4(C)[C@H]3CC[C@]12C", "Class Name": "y"}
{"Smiles Notation": "CC(=O)[C@H]1CC[C@H]2[C@@H]3CC[C@@H]4CC(=O)CC[C@]4(C)[C@H]3CC[C@]12C", "Class Name": "y"}

hey, is log(RBA) for this one >= 1? CC[C@@H]1C[C@H]2[C@@H]3CCC4=CC(=O)CC[C@]4(C)[C@H]3CC[C@]2(C)[C@H]1C(C)=O
y

Please give the result for CC(=O)O[C@]1(C(C)=O)CC[C@H]2[C@@H]3CCC4=CC(=O)CC[C@]4(C)[C@H]3CC[C@@]21C too.
y

And for C[C@]12CC[C@H]3[C@@H](CCC4=CC(=O)CC[C@@]43C)[C@@H]1CC[C@@H]2O ?
n

###

# Species: Cavia porcellus
# Assay Info: Relative binding affinity to guinea pig progesterone receptor
Criterion: log(RBA) meeting or surpassing 0.3. Met: Met. Not met: Not met.

The examples below pair each entry with its known result.
{"Smiles Notation": "C[C@]12C[C@H](O)[C@H]3[C@@H](CCC4=CC(=O)CC[C@@]43C)[C@@H]1CC[C@@H]2C(=O)CO", "Class Name": "Met"}
{"Smiles Notation": "CC(=O)[C@H]1CC[C@H]2[C@@H]3CCC4=CC(=O)C=C[C@]4(C)[C@H]3CC[C@]12C", "Class Name": "Met"}
{"Smiles Notation": "CC(=O)[C@H]1CC[C@H]2[C@@H]3CCC4=CC(=O)CC[C@]4(C)[C@H]3CC(=O)[C@]12C", "Class Name": "Not met"}
{"Smiles Notation": "C[C@]12CCC(=O)C=C1CC[C@@H]1[C@@H]2CC[C@]2(C)C(=O)CC[C@@H]12", "Class Name": "Not met"}

API: above_or_equal(metric=log(RBA), cutoff=0.3) for item C#C[C@]1(O)CC[C@H]2[C@@H]3CC[C@@H]4C[C@H](O)CC[C@@H]4[C@H]3CC[C@@]21C
Not met

Likewise for C#C[C@]1(O)CC[C@H]2[C@@H]3CC[C@@H]4C[C@@H](O)CC[C@@H]4[C@H]3CC[C@@]21C ?
Not met

Further, for C#C[C@]1(O)CC[C@H]2[C@@H]3CC[C@H]4C[C@@H](O)CC[C@@H]4[C@H]3CC[C@@]21C ?
Not met

Now the same for C#C[C@]1(O)CC[C@H]2[C@H]3[C@H](CC[C@@]21C)[C@H]1CCCC=C1C[C@H]3C
Not met

Would you mind doing CC(=O)[C@H]1CC[C@H]2[C@@H]3[C@H](C)CC4=CC(=O)CC[C@]4(C)[C@H]3CC[C@]12C as well?
Met

Also check CC(=O)[C@@]12[C@@H](C[C@H]3[C@@H]4CCC5=CC(=O)CC[C@]5(C)[C@H]4CC[C@@]31C)C2(C)C
Met

Same read-out for C[C@@H](O)[C@H]1CC[C@H]2[C@@H]3CCC4=CC(=O)CC[C@]4(C)[C@H]3CC[C@]12C ?
Not met

Subsequent entry: CC[C@]12CC[C@H]3[C@@H](CCC4=CC(=O)CC[C@@]43C)[C@@H]1CC[C@@H]2C(C)=O
Met

Another molecule to check: CC(=O)O[C@]1(C(C)=O)CC[C@H]2[C@@H]3CCC4=CC(=O)CC[C@]4(C)[C@H]3CC[C@@]21C
Not met

Note, next up: CC(=O)[C@H]1CC[C@H]2[C@@H]3CCC4=CC(=O)CC[C@]4(C)[C@H]3C(=O)C[C@]12C
Not met

###

# Tested System: Progesterone receptor (Homo sapiens)
Reported values of log(RBA) for individual entries

Below, each entry is followed by its recorded log(RBA) result.
{"Smiles Notation": "CC(=O)[C@H]1CC[C@H]2[C@@H]3CC[C@H]4CC(=O)CC[C@]4(C)[C@H]3CC[C@]12C", "Observable": "log(RBA)", "Measurement": 1.48}
{"Smiles Notation": "C[C@H](O)[C@H]1CC[C@H]2[C@@H]3CCC4=CC(=O)CC[C@]4(C)[C@H]3CC[C@]12C", "Observable": "log(RBA)", "Measurement": 1}
{"Smiles Notation": "CC(=O)[C@H]1CC[C@H]2[C@@H]3CCC4=CC(=O)CC[C@]4(C)[C@H]3[C@H](O)C[C@]12C", "Observable": "log(RBA)", "Measurement": 0.48}
{"Smiles Notation": "CC(=O)O[C@]1(C(C)=O)CC[C@H]2[C@@H]3C=C(C)C4=CC(=O)CC[C@]4(C)[C@H]3CC[C@@]21C", "Observable": "log(RBA)", "Measurement": 1.94}
{"Smiles Notation": "CC(=O)O[C@]1(C(C)=O)CC[C@H]2[C@@H]3CCC4=CC(=O)CC[C@]4(C)[C@H]3CC[C@@]21C", "Observable": "log(RBA)", "Measurement": 1.83}
{"Smiles Notation": "C#C[C@]1(O)CC[C@H]2[C@@H]3CC[C@H]4C[C@H](O)CC[C@@H]4[C@H]3CC[C@@]21C", "Observable": "log(RBA)", "Measurement": -1}
{"Smiles Notation": "CC(=O)O[C@]1(C(C)=O)CC[C@H]2[C@@H]3C=C(Cl)C4=CC(=O)CC[C@]4(C)[C@H]3CC[C@@]21C", "Observable": "log(RBA)", "Measurement": 2.08}
{"Smiles Notation": "CC[C@@H]1C[C@H]2[C@@H]3CCC4=CC(=O)CC[C@@H]4[C@H]3CC[C@]2(C)[C@H]1C(=O)CO", "Observable": "log(RBA)", "Measurement": 2.16}
{"Smiles Notation": "C#C[C@]1(O)CC[C@H]2[C@@H]3CC=C4CCCC[C@@H]4[C@H]3CC[C@@]21C", "Observable": "log(RBA)", "Measurement": -1}

Lab note: next molecule to report on.
Missing value: log(RBA), Progesterone receptor (Homo sapiens), entry CC[C@@H]1C[C@H]2[C@@H]3CCC4=CC(=O)CC[C@]4(C)[C@H]3CC[C@]2(C)[C@H]1C(C)=O . Fill in?
1.98

The measurements presented in this section are drawn from ChEMBL document CHEMBL3272135.
